Test system: Klebsiella pneumoniae
Assay: Antimicrobial activity against KPC-3 producing Klebsiella pneumoniae 549 ST 327 expressing beta-lactamase TEM-1 and CTX-M-2 by agar dilution method
Format: functional
MEASURED_METRIC: MIC (µg/mL)
Expressed in µg/mL, but write only the number.

Consider the reported MIC for these compounds:
# COMPOUND, OBS_VALUE
records = [
    ("CC(C)(O/N=C(\\C(=O)N[C@@H]1C(=O)N2C(C(=O)[O-])=C(C[n+]3ccccc3)CS[C@H]12)c1csc(N)n1)C(=O)O [CEFTAZIDIME]", 16),
    ("C[C@@H](O)[C@H]1C(=O)N2C(C(=O)O)=C(SCCNC=N)C[C@H]12 [IMIPENEM ANHYDROUS]", 0.75),
    ("C[C@@H](O)[C@H]1C(=O)N2C(C(=O)O)=C(S[C@@H]3CN[C@H](C(=O)Nc4cccc(C(=O)O)c4)C3)[C@H](C)[C@H]12", 32),
]

As a next step, examine the compound that follows.
What MIC appears in the records for this compound with Klebsiella pneumoniae? C[C@@H](O)[C@H]1C(=O)N2C(C(=O)O)=C(S[C@@H]3CN[C@H](C(=O)N(C)C)C3)[C@H](C)[C@H]12 [MEROPENEM] 8
